Recorded values, source PubChem BioAssay (EPA / NIEHS).

test: BSK_KF3CT_SRB: Viability Assessment in the BioMAP Diversity Plus: KF3CT Assay (AID 2283069); details: primary human keratinocytes with fibroblasts;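 also: total protein by sulforhodamine B staining as a cytotoxicity measure; read 24 h after compound addition; fitted for both signal gain and loss against DMSO baseline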
Active and inactive are the calls of the source. The calls were made as follows: active = hit-call score of the fitted dose curve at least 0.9, where 1 is the maximum; inactive = score below 0.9.
measurement.type: AC50

{"columns": ["smiles.str", "result"],
 "data": [
  ["CCCCC/C=C/C=C/C=O", "32.6 µM (active)"],
  ["CC(=O)O[C@]1(C(C)=O)CC[C@H]2[C@@H]3C[C@H](C)C4=CC(=O)CC[C@]4(C)[C@H]3CC[C@@]21C", "inactive"],
  ["CCn1c2ccccc2c2cc(N)ccc21", "inactive"],
  ["CC(C)c1ccc(C(C)C)cc1", "inactive"]
]}
